system: ATP; test: switch fluorescence ratio, 500 uM ATP over buffer (Cy3 cluster intensity, sum of 5 cycles each) (fold (ratio)); higher = stronger signal-on switching upon ATP binding; sequences stand for … in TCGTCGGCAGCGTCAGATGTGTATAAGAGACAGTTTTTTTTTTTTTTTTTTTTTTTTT…TC; conditions: aptamer strand: ATP DNA aptamer (quencher-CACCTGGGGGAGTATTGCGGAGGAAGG + anchor), 100 nM annealed; ATP concentration: 500 uM;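 note: ATP exposure 15 min at 22 °C before imaging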
Would you mind labelling by switch fluorescence ratio? At or over 1 is label 1, under is label 0.

[[record]]
residue_codes = "TTTGGGAATG"
assigned_label = "label 1"

[[record]]
residue_codes = "CCCATACTGA"
assigned_label = "label 1"

[[record]]
residue_codes = "CCTGGGGCTA"
assigned_label = "label 1"

[[record]]
residue_codes = "AAATTGCGAC"
assigned_label = "label 1"


## Input Does switch fluorescence ratio meet or surpass 1 for `CCTTTGGAAT` ?
## Output label 1

## Input Given the entry `AGAAGTTTTG` , answer whether its switch fluorescence ratio meets or surpasses 1.
## Output label 1

## Input Does `AGAAACGGGG` have a reported switch fluorescence ratio of at least 1?
## Output label 1

## Input Is it the case that `TACCTGCGAA` has switch fluorescence ratio reaching or exceeding 1?
## Output label 1

## Input In plain terms: is recorded switch fluorescence ratio at least 1 for `CAAGCATCGC` ?
## Output label 0

## Input Determine whether this sequence has switch fluorescence ratio no lower than 1: `GACATCCCCT`
## Output label 1

## Input Decide: is the reported value of switch fluorescence ratio for `AAAACTTCCT` equal to or greater than 1?
## Output label 1

## Input Entry `CCATGGGCGA` : is its switch fluorescence ratio no less than 1?
## Output label 1

## Input Record `AACCATACGT` ; criterion: switch fluorescence ratio no lower than 1. Met?
## Output label 1

## Input Say whether `GTAAGTAGCG` shows switch fluorescence ratio of 1 or more.
## Output label 0

## Input Decide: is the reported value of switch fluorescence ratio for `GAAACCGGAT` equal to or greater than 1?
## Output label 0

## Input Exam item: decide whether the reported switch fluorescence ratio for `CACTGCTCCT` is at least 1.
## Output label 1

## Input Hello, I need to know if `CAAGCAAATT` has measured switch fluorescence ratio not below 1. Thanks!
## Output label 1

* * *

switch fluorescence ratio listing for selected sequences.
system: ATP; assay: switch fluorescence ratio, 500 uM ATP over buffer (Cy3 cluster intensity, sum of 5 cycles each) (fold (ratio)); higher = stronger signal-on switching upon ATP binding; sequences stand for … in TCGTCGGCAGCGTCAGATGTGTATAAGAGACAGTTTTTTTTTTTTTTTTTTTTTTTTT…TC; conditions: aptamer strand: ATP DNA aptamer (quencher-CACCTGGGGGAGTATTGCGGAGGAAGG + anchor), 100 nM annealed; ATP concentration: 500 uM;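 note: ATP exposure 15 min at 22 °C before imaging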
Please reply with the number alone, leaving off any unit.

As a guide, the following entries are already answered.
[[record]]
residue_codes = "GGGCCATGTA"
assayed_system = "ATP"
meas_value = 1

[[record]]
residue_codes = "TTTAGGTCTA"
assayed_system = "ATP"
meas_value = 0.978

[[record]]
residue_codes = "AGTAGAAGAT"
assayed_system = "ATP"
meas_value = 0.955

[[record]]
residue_codes = "GGATGGTGGT"
assayed_system = "ATP"
meas_value = 1.01

[[record]]
residue_codes = "GGCTGGTTGG"
assayed_system = "ATP"
meas_value = 1.01

[[record]]
residue_codes = "ATTGCTTTTT"
assayed_system = "ATP"
meas_value = 0.983

[[record]]
residue_codes = "CGGGGCAAAT"
assayed_system = "ATP"
meas_value = 1.04

[[record]]
residue_codes = "GAAGTGTGGC"
assayed_system = "ATP"
meas_value = 1.08


## Input Find the recorded switch fluorescence ratio belonging to `TTAAAAAAAT` and report it.
## Output 1.73
